Biological target: 5-HT2C receptor (Homo sapiens, UniProt P28335)
Assay: FLIPR Ca2+ flux functional assay, agonist activity at 5-HT2C
Conditions: stably transfected HEK293 cells
quantity name: EC50

Fc1cnc2[nH]cc(CCN3CCC34CCC4)c2c1; > 10 µM
CCN(C)CCc1c[nH]c2ncc(Br)cc12; > 10 µM
Fc1cnc2[nH]cc(CCN3CCOCC3)c2c1; > 10 µM

---

Molecular target: 5-HT2C receptor (Homo sapiens, UniProt P28335)
Sequence (P28335 33-458): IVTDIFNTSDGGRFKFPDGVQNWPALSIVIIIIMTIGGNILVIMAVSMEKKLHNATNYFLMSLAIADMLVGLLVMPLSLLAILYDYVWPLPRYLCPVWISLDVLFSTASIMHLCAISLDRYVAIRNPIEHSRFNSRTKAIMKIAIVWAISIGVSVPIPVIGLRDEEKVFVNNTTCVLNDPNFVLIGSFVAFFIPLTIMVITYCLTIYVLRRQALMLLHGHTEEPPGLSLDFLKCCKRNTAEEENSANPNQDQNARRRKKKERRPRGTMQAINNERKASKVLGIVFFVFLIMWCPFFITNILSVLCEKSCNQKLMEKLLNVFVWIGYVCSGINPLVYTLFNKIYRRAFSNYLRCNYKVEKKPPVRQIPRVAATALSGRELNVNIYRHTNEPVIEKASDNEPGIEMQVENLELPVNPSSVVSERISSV
Experiment: FLIPR Ca2+ flux functional assay, agonist activity at 5-HT2C
Details: stably transfected HEK293 cells
quantity name: EC50

CN(CCc1c[nH]c2ncc(OC(F)(F)F)cc12)C1CC1; > 10 µM
C[C@H]1CCCN1CCc1c[nH]c2ncc(F)cc12; > 10 µM
CC1CCN1CCc1c[nH]c2ncc(C#N)cc12 (stereo not shown); > 10 µM
C[C@@H]1CCN1CCc1c[nH]c2ncc(F)cc12; > 10 µM
COc1cnc2[nH]cc(CCN3CCC3)c2c1; > 10 µM
CC(C)N(C)CCc1c[nH]c2ncc(C#N)cc12; > 10 µM
CCN(C)CCc1c[nH]c2ncc(C#N)cc12; > 10 µM
Fc1cnc2[nH]cc(CCNC3CCC3)c2c1; > 10 µM
CCN(C)CCc1c[nH]c2ncc(OC(F)(F)F)cc12; > 10 µM
N#Cc1cnc2[nH]cc(CCN3CCCC3)c2c1; > 10 µM
N#Cc1cnc2[nH]cc(CCN3CCC3)c2c1; > 10 µM
COc1cnc2[nH]cc(CCN3CCCCC3)c2c1; > 10 µM
CC1CCN1CCc1c[nH]c2ncc(Br)cc12 (stereo not shown); > 10 µM
CC(C)N(C)CCc1c[nH]c2ncc(OC(F)(F)F)cc12; > 10 µM
N#Cc1cnc2[nH]cc(CCNCc3cccc(F)c3)c2c1; 7.43 µM
Fc1cnc2[nH]cc(CCN3CCCCC3)c2c1; > 10 µM
Fc1cnc2[nH]cc(CCN(C3CC3)C3CC3)c2c1; > 10 µM
C[C@H]1CCN1CCc1c[nH]c2ncc(F)cc12; 3.96 µM
Fc1cccc(CNCCc2c[nH]c3ncc(F)cc23)c1; 0.515 µM

---

Target: 5-HT2A receptor (Homo sapiens, UniProt P28223)
Construct: host or cells: HEK293
Sequence (P28223 whole entry): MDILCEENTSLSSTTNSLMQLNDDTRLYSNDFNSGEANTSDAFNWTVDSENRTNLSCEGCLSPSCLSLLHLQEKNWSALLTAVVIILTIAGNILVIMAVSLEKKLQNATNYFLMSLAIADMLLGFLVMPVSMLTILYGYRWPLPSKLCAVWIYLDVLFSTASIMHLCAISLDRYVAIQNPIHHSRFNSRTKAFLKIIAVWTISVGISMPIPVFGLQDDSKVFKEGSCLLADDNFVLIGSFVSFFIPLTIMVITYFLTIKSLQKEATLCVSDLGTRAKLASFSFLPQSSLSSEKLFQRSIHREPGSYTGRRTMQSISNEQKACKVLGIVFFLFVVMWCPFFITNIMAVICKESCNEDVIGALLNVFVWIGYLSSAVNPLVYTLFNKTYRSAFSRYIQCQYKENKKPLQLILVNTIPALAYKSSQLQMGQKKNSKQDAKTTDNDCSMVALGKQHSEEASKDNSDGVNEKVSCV
Experiment: FLIPR Ca2+ flux functional assay, agonist activity at 5-HT2A
Type: cell-based
Details: stably transfected HEK293 cells
quantity name: Emax (%)

Fc1cnc2[nH]cc(CCN3CCOCC3)c2c1 [Compound S15]; 72
Fc1cnc2[nH]cc(CCN3CCCCC3)c2c1 [Compound S7]; 70
N#Cc1cnc2[nH]cc(CCNCc3ccccc3F)c2c1 [Compound S72]; 70
CCN(C)CCc1c[nH]c2ncc(Br)cc12 [Compound S54]; 69
CN(CCc1c[nH]c2ncc(C#N)cc12)C1CC1 [Compound S68]; 70
